Target: human SOS1 (loading of human K-Ras^G12C-GDP with fluorescent GTP-analog) (Homo sapiens, UniProt Q07889)
Assay: Biochemical assay 3: K-Ras^G12C activation assay by hSOS1 (HTRF)
Details: E-notation values; unit inferred; read-out: Assay 3 (KRAS-Activation) IC50
Answer each item with its documented IC50.

Data request: IC50 lookup needed for COc1cc2nc(C)nc(NC(C)c3ccc(-c4ccccc4C4CC(=O)N4)s3)c2cc1OC (centres unmarked) , thanks.
Data returned: > 20 µM

Data request: IC50 lookup needed for COc1cc2nc(C)nc(NC(C)c3cc(C)c(-c4cnc5n4CCC5)s3)c2cc1OC (centres unmarked) , thanks.
Data returned: 2.33 µM

Data request: IC50 lookup needed for Cc1nc(NC(C)c2ccc(Br)s2)c2cc(N3CCN(C)C(=O)C3)ccc2n1 (centres unmarked) , thanks.
Data returned: 2.81 µM

Data request: IC50 lookup needed for COc1cc2nc(C)nc(NC(C)c3ccc(-c4ccccc4C(O)C(F)(F)F)s3)c2cc1OC (centres unmarked) , thanks.
Data returned: 2.74 µM

Data request: IC50 lookup needed for Cc1nc(N[C@H](C)c2cccc(Cl)c2)c2cc(C(C)(C)O)ccc2n1 , thanks.
Data returned: 1.52 µM

Data request: IC50 lookup needed for COc1cc2nc(C)nc(NC(C)c3nc(C)cs3)c2cc1OC (centres unmarked) , thanks.
Data returned: > 20 µM

Data request: IC50 lookup needed for COCCNCc1ccccc1-c1ccc(C(C)Nc2nc(C)nc3cc(OC)c(OC)cc23)s1 (centres unmarked) , thanks.
Data returned: 0.169 µM

Data request: IC50 lookup needed for CC(=O)Nc1ccc2nc(C)nc(NC(C)c3ccc(-c4ccccc4CN(C)C)s3)c2c1 (centres unmarked) , thanks.
Data returned: 0.579 µM

----------
Answer each item with its documented pIC50.
Biological target: human SOS1 (nucleotide exchange of K-Ras^G12C) (Homo sapiens, UniProt Q07889)
Assay: Biochemical assay 2: K-Ras^G12C activation assay by hSOS1 at high GTP concentration (HTRF)
Conditions: high GTP; read-out: Assay 2 (KRAS-Activation by SOS high GTP) activity expressed as IC50
# log scale: pIC50 equals minus log10 of the concentration in mol/L

Data request: pIC50 lookup needed for CNC(=O)CNCc1ccccc1-c1ccc(C(C)Nc2nc(C)nc3cc(OC)c(OC)cc23)s1 (stereo not shown) [Example 282] , thanks.
Data returned: 6.58

Data request: pIC50 lookup needed for COc1cc2nc(C)nc(NC(C)c3ccc(-c4cnn(CC(N)=O)c4)s3)c2cc1OC (stereo not shown) [Example 249] , thanks.
Data returned: 5.27

Data request: pIC50 lookup needed for COc1cc2nc(C)nc(N[C@@H](C)c3ccc(-c4ccccc4NC(C)=O)s3)c2cc1OC (racemic) [Example 166] , thanks.
Data returned: 5.43

Data request: pIC50 lookup needed for COc1cc2nc(C)nc(NC(C)c3ccc(-c4ccccc4CN4CCC(F)(F)C4)s3)c2cc1OC (stereo not shown) [Example 223] , thanks.
Data returned: 5.25

Data request: pIC50 lookup needed for COc1cc2nc(C)nc(N[C@H](C)c3cccc(-c4cn[nH]c4)c3)c2cc1OCCC(C)C [Example 351] , thanks.
Data returned: 5.92

Data request: pIC50 lookup needed for COc1cc2nc(C)nc(N[C@@H](C)c3ccc(-c4cnc(N)nc4)s3)c2cc1OC (racemic) [Example 131] , thanks.
Data returned: 5.47

Data request: pIC50 lookup needed for COc1cc2nc(C)nc(N[C@H](C)c3cccc(-c4cnn(CCN5CCCC5)c4)c3)c2cc1OC [Example 257] , thanks.
Data returned: 6.12

Data request: pIC50 lookup needed for COc1cc2nc(C)nc(N[C@H](C)c3cccc(-c4cnn(CCO)c4)c3)c2cc1OC [Example 256] , thanks.
Data returned: 6.08

Data request: pIC50 lookup needed for COc1cc2nc(C)nc(NC(C)c3cccc(OC)c3OC)c2cc1OC (stereo not shown) [Example 21] , thanks.
Data returned: 5.49

Data request: pIC50 lookup needed for COc1cc2nc(C)nc(N[C@H](C)c3cccc(-c4ccc(C(=O)NCCN(C)C)cc4)c3)c2cc1OC [Example 74] , thanks.
Data returned: 6.65

Data request: pIC50 lookup needed for COc1cc2nc(C)nc(N[C@H](C)c3cccc(-c4cccc(C(F)(F)F)c4)c3)c2cc1OC [Example 100] , thanks.
Data returned: 5.35

Data request: pIC50 lookup needed for COc1cc2nc(C)nc(N[C@H](C)c3cccc(-c4cccc(N5CCOCC5)c4)c3)c2cc1OC [Example 80] , thanks.
Data returned: 6.15

Data request: pIC50 lookup needed for COc1cc2nc(C)nc(NC(C)c3cncc4sccc34)c2cc1OC (stereo not shown) [Example 332] , thanks.
Data returned: 5.58

Data request: pIC50 lookup needed for COc1cc2nc(C)nc(NC(C)c3ccc(-c4ccccc4CCO)s3)c2cc1OC (stereo not shown) [Example 180] , thanks.
Data returned: 6.04

Data request: pIC50 lookup needed for COc1cc2nc(C)nc(N[C@@H](C)c3ccc(-c4ccc(CNS(C)(=O)=O)cc4)s3)c2cc1OC (racemic) [Example 140] , thanks.
Data returned: 5.28

Data request: pIC50 lookup needed for COc1cc2nc(C)nc(NC(C)c3ccc(-c4cnn(CCO)c4)s3)c2cc1OC (stereo not shown) [Example 218] , thanks.
Data returned: 5.86
